target: SpHof1-3; test: SPOT peptide array binding signal intensity (averaged, normalized) (arbitrary units (background-subtracted, floor 0; scale differs between SH3 domains)); higher = stronger binding of the SH3 domain to the peptide
MEASUREMENT_KIND: SPOT peptide array binding signal intensity

Reference set, count: 3
AAAPKHAPPPVPNET : 5.75
QFDLKMPSKPIHNLK : ≤ 0
LASNSPPVYPKRIRH : 2.75

Batch request: SPOT peptide array binding signal intensity per item, same order as input.
1. ILARAILTIPRVLDK
2. SSSSTPPTLPPRRIE

Reply:
1: 158; 2: 10

Batch request: SPOT peptide array binding signal intensity per item, same order as input.
1. FYHRPAPKPPVTKKV
2. QDKEGIPPDQQRLIF
3. DHPKGPPPPPPPDEK
4. EQEEIAPSLPSRNSI
5. AERNYAPRLPRRETS

Reply:
["≤ 0", 20, 4, 0.75, 197]

Batch request: SPOT peptide array binding signal intensity per item, same order as input.
1. LRIKRKPVQTFFEFI
2. GPPPPLPPPLFPSSS
3. IPSRPAPKPPSSASA
4. LYKRKPILLPDPKPL
5. LYEAMPPTLPHRDWK
6. ATKSASPTLPTRRSR

Reply:
1. 784
2. ≤ 0
3. ≤ 0
4. 83
5. 0.5
6. 110

Batch request: SPOT peptide array binding signal intensity per item, same order as input.
1. RFKRHRLEFPFNESE
2. TSIEIPKRSPLRFTS
3. FLIKFTPKFPQSIDH
4. KIRRSSLMIPNPQQF
5. KWVRRPKLMTPLTFS
6. SNRRPVPRRPSQPLN

Reply:
[348, 25.5, 1580, 241, 450, 302]

Batch request: SPOT peptide array binding signal intensity per item, same order as input.
1. VDFTLPPPPPPPGLD
2. DTIDNVKSKIQDKEG
3. TKFRISLGLPVGAIM
4. NPTKSPPPPPSPSTM
5. VATSTSPKLPPRGKQ
6. HGKRRAPLLLAKLDV
7. DAPASKPSVPPRNYF

Reply:
[1.75, 7.75, 760, 0.5, 61.2, 242, 11]

Task item: Given "KDKKTKPTPPPKPSH" , respond with its SPOT peptide array binding signal intensity.
Reply: 67.8
